experiment notes: in vitro
run conditions: beagle, dog, plasma, pH 7.4
reported property: fraction unbound at 2.5 h, 2 µM
// response body must contain only the number

// sample CC(=O)CC(c1ccccc1)c1c(O)c2ccccc2oc1=O (stereo not shown) [Warfarin] , its fraction unbound at 2.5 h, 2 µM was 0.0305

----------
experiment notes: Metabolic stability in cryopreserved CD-1 mouse hepatocytes
Type: in vitro ADME
run conditions: cryopreserved hepatocytes, CD-1 mouse hepatocytes 0.5 million cells/mL
Ends that are not written are not given here.
reported property: half-life at 2 µM

// sample LRKLRKRLLRLVGRQLEEFL [HM-10/10, LRKLRKRLLRLVGRQLEEFL] , its half-life at 2 µM was < 15 min

----------
system under test: UniProtKB P33261
experiment notes: in vitro
run conditions: both, microsomes, pH 7.4, % Inhibition at 50 µM PI − NADPH
reported property: inhibition at 30 min, 50 µM (%)
Report the value in % with no unit label.

// sample COc1ccc2[nH]c([S+]([O-])Cc3ncc(C)c(OC)c3C)nc2c1 (stereo not shown) , its inhibition at 30 min, 50 µM was 90.7

----------
experiment notes: in vitro
run conditions: Sprague-Dawley, rat, plasma, pH 7.4
Ends that are not written are not given here.
reported property: remaining at 2 h, 2 µM (%)
Report the value in % with no unit label.

// sample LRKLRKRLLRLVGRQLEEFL [HM-10/10, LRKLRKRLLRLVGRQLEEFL] , its remaining at 2 h, 2 µM was 36.3

----------
experiment notes: in vitro
run conditions: human, plasma, pH 7.4
Ends that are not written are not given here.
reported property: half-life at 2 µM
Show the value, then the unit it is measured in.

// sample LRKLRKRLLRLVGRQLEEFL [HM-10/10, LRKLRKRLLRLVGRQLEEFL] , its half-life at 2 µM was 2.73 h

----------
experiment notes: in vitro
run conditions: cynomolgus monkey, plasma, pH 7.4
reported property: remaining at 2 h, 2 µM (%)
Report the value in % with no unit label.

// sample "CC(C)[N+](C)(CCOC(=O)C1c2ccccc2Oc2ccccc21)C(C)C" , its remaining at 2 h, 2 µM was 80.3

Next item in the queue.
// sample "CC[C@H](C)C(=O)O[C@H]1C[C@@H](C)C=C2C=C[C@H](C)[C@H](CC[C@@H]3C[C@@H](O)CC(=O)O3)[C@H]21" , its remaining at 2 h, 2 µM was 115

----------
system under test: CYP2C19 (Homo sapiens, UniProt P33261)
Sequence (P33261 whole entry): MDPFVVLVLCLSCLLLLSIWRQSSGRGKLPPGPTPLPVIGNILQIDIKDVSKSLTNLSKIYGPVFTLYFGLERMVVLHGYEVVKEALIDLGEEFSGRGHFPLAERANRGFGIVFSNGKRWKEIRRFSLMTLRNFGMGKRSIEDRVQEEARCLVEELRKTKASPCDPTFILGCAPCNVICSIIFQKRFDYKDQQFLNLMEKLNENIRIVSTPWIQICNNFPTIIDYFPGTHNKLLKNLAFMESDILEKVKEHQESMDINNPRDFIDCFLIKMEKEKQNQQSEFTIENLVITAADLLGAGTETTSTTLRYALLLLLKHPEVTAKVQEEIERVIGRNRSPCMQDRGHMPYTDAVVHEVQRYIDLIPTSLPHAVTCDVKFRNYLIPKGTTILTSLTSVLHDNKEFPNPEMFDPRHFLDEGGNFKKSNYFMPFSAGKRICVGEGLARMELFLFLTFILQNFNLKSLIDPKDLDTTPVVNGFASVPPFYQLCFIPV
experiment notes: in vitro
run conditions: both, microsomes, pH 7.4, % Inhibition at 50 µM No PI − NADPH
reported property: inhibition at 30 min, 50 µM (%)
Report the value in % with no unit label.

Reported inhibition at 30 min, 50 µM (CYP2C19 (Homo sapiens, UniProt P33261)) for entry COc1ccc2[nH]c([S+]([O-])Cc3ncc(C)c(OC)c3C)nc2c1 (stereo not shown) is 93.1

----------
experiment notes: Metabolic stability in cryopreserved cynomolgus monkey hepatocytes
Assay type: in vitro ADME
run conditions: Cynomolgus monkey hepatocytes 0.5 million cells/mL; 2 μM
Ends that are not written are not given here.
reported property: CLint scaled (mL/min/kg)
Report the value in mL/min/kg with no unit label.

// sample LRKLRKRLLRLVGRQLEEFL [HM-10/10, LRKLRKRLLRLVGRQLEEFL] , its CLint scaled was 465

----------
experiment notes: Metabolic stability in cynomolgus monkey liver microsomes
Format: in vitro ADME
run conditions: pooled liver microsomes, pH 7.4, Cynomolgus monkey liver microsomes 0.5 mg protein/mL, read-out: % Remaining at 120 min
Ends that are not written are not given here.
reported property: remaining at 2 h, 2 µM
Show the value, then the unit it is measured in.

// sample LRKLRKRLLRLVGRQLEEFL [HM-10/10, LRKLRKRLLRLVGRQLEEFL] , its remaining at 2 h, 2 µM was 0.8%

----------
experiment notes: in vitro
run conditions: cynomolgus monkey, plasma, pH 7.4
reported property: fraction unbound at 2.5 h, 2 µM
// response body must contain only the number

// sample CC(=O)CC(c1ccccc1)c1c(O)c2ccccc2oc1=O (stereo not shown) , its fraction unbound at 2.5 h, 2 µM was 0.0086

----------
experiment notes: Protein binding in beagle dog plasma (ultracentrifugation)
run conditions: beagle, dog, plasma (K2EDTA), pH 7.4
Ends that are not written are not given here.
reported property: fraction unbound at 2.5 h, 2 µM
// response body must contain only the number

// sample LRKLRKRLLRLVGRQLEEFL [HM-10/10, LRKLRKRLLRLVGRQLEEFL] , its fraction unbound at 2.5 h, 2 µM was 0.648

----------
experiment notes: Protein binding in human plasma (ultracentrifugation)
Assay type: in vitro ADME
run conditions: pH 7.4, Human plasma (K2EDTA), 37 °C, read-out: % Stability in Matrix (2.5 h)
Ends that are not written are not given here.
reported property: remaining at 2.5 h, 2 µM (%)
Report the value in % with no unit label.

// sample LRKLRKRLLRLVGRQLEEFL [HM-10/10, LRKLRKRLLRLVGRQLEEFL] , its remaining at 2.5 h, 2 µM was 88.5

----------
experiment notes: Metabolic stability in Sprague-Dawley rat liver microsomes
Type: in vitro ADME
run conditions: pooled liver microsomes, pH 7.4, Sprague-Dawley rat liver microsomes 0.5 mg protein/mL
Ends that are not written are not given here.
reported property: half-life at 2 µM
Show the value, then the unit it is measured in.

// sample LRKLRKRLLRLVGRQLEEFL [HM-10/10, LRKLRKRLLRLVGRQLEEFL] , its half-life at 2 µM was 27.7 min

----------
experiment notes: Metabolic stability in cryopreserved cynomolgus monkey hepatocytes
Type: in vitro ADME
run conditions: cryopreserved hepatocytes, Cynomolgus monkey hepatocytes 0.5 million cells/mL
Ends that are not written are not given here.
reported property: half-life at 2 µM
Show the value, then the unit it is measured in.

// sample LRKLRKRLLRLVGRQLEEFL [HM-10/10, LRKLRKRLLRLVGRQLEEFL] , its half-life at 2 µM was 12.1 min

----------
experiment notes: Metabolic stability in cryopreserved CD-1 mouse hepatocytes
Type: in vitro ADME
run conditions: cryopreserved hepatocytes, CD-1 mouse hepatocytes 0.5 million cells/mL, read-out: % Remaining at 30 min
Ends that are not written are not given here.
reported property: remaining at 0.5 h, 2 µM (%)
Report the value in % with no unit label.

// sample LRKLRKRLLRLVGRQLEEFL [HM-10/10, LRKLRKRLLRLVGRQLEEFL] , its remaining at 0.5 h, 2 µM was 0.7

----------
experiment notes: Stability in potassium phosphate buffers of pH 1.3, 5.5 and 7.4
Format: physicochemical
run conditions: potassium phosphate buffer, Physiological pH (pH 7.4), read-out: % Remaining at 60 min
reported property: remaining at 1 h, 2 µM (%)
Report the value in % with no unit label.

// sample CCOc1ccc2ccc(=O)oc2c1 [7-Ethoxycoumarin, reference compound] , its remaining at 1 h, 2 µM was 87.5

----------
experiment notes: Metabolic stability in cynomolgus monkey liver microsomes
Assay type: in vitro ADME
run conditions: pooled liver microsomes, pH 7.4, Cynomolgus monkey liver microsomes 0.5 mg protein/mL
Ends that are not written are not given here.
reported property: half-life at 2 µM (min)
Report the value in min with no unit label.

// sample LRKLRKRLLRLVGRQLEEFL [HM-10/10, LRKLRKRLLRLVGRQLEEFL] , its half-life at 2 µM was 21.8

----------
experiment notes: Metabolic stability in cryopreserved Sprague-Dawley rat hepatocytes
Format: in vitro ADME
run conditions: cryopreserved hepatocytes, Sprague-Dawley rat hepatocytes 0.5 million cells/mL, read-out: % Remaining at 30 min
Ends that are not written are not given here.
reported property: remaining at 0.5 h, 2 µM (%)
Report the value in % with no unit label.

// sample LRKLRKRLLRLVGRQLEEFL [HM-10/10, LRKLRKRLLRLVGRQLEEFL] , its remaining at 0.5 h, 2 µM was 1

----------
experiment notes: in vitro
run conditions: Sprague-Dawley, rat, plasma, pH 7.4
reported property: half-life at 2 µM (h)
Report the value in h with no unit label.

// sample CC(C)[N+](C)(CCOC(=O)C1c2ccccc2Oc2ccccc21)C(C)C [Propantheline, propantheline] , its half-life at 2 µM was 77.5

Next item in the queue.
// sample CC[C@H](C)C(=O)O[C@H]1C[C@@H](C)C=C2C=C[C@H](C)[C@H](CC[C@@H]3C[C@@H](O)CC(=O)O3)[C@H]21 [Lovastatin, lovastatin] , its half-life at 2 µM was 0.138

----------
experiment notes: in vitro
run conditions: Sprague-Dawley, rat, plasma, pH 7.4
reported property: remaining at 2 h, 2 µM
Show the value, then the unit it is measured in.

// sample "CC(C)[N+](C)(CCOC(=O)C1c2ccccc2Oc2ccccc21)C(C)C" , its remaining at 2 h, 2 µM was 95%
